# assay-target: T1, human GIPR (human), P48546
# T1 chain: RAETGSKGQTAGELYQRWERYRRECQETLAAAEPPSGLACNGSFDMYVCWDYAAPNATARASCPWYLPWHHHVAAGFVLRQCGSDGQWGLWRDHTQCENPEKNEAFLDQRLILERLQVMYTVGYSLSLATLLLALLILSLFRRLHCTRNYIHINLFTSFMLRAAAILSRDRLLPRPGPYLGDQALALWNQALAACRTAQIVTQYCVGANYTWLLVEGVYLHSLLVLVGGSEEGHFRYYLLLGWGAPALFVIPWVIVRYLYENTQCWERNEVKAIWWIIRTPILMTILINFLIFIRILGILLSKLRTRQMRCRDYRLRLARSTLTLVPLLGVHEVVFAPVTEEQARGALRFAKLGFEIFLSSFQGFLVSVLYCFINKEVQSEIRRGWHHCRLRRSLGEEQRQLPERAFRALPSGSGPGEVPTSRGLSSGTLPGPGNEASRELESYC
# protocol-details: [125I]GIP displacement, hGIPR VLP
Non-standard residues stand in square brackets, D forms with d. Groups on a side chain read outwards from the residue. Primed or numbered codes have the meaning given here. No end group written: not given here. *: point of attachment. NMeY = CN[C@@H](Cc1ccc(O)cc1)C(=O)O; αMeF = C[C@](N)(Cc1ccccc1)C(=O)O; Lauroyl = CCCCCCCCCCCC(=O)*; dIva = CC[C@@](C)(N)C(=O)O; Aib = CC(C)(N)C(=O)O
Documented pIC50 across a set of binders
Please treat pIC50 as minus the base-10 logarithm of the molar concentration.

# binder, pIC50
data = [
    ("[NMeY][Aib]EGTFISDYSI[dIva]LDR[Aib]AQQDFVNWLLAQRPSSGAPPPSR (ends and bridges not checked) [Compound 79]", 8.92),
]

Please find the next binder below.
Q. Query: pIC50; subject: Y[Aib]EGTFISDYSK([PEG(2)-Lauroyl])ALDRIAQQDFVN[αMeF]LLAQRPSSGAPPPSR (ends and bridges not checked) [Compound 194]
A. 8.64
